Read-out record for NK1 receptor (Homo sapiens, UniProt P25103): Ki

[
  {
    "compound": "CNC(=O)[C@]1(N)C[C@@](CO[C@H](C)c2cc(C(F)(F)F)cc(C(F)(F)F)c2)(c2ccccc2)C1",
    "result-type": "Ki",
    "reported": "130 to 1780 pM"
  },
  {
    "compound": "C[C@@H](OC[C@]1(c2ccccc2)C[C@](N)(C(N)=O)C1)c1cc(C(F)(F)F)cc(C(F)(F)F)c1",
    "result-type": "Ki",
    "reported": "130 to 1780 pM"
  },
  {
    "compound": "C[C@@H](OC[C@]1(c2ccccc2)C[C@@]2(C1)NC(=O)NC2=O)c1cc(C(F)(F)F)cc(C(F)(F)F)c1 [Example 11b]",
    "result-type": "Ki",
    "reported": "130 to 1780 pM"
  }
]

**Q:** Quick check: Ki on NK1 receptor (Homo sapiens, UniProt P25103), item C[C@@H](OC[C@]1(c2ccccc2)C[C@@]2(CNC(=O)N2)C1)c1cc(C(F)(F)F)cc(C(F)(F)F)c1 [Example 12b] ?
**A:** 130 to 1780 pM

**Q:** Quick check: Ki on NK1 receptor (Homo sapiens, UniProt P25103), item C[C@@H](OC[C@]1(c2ccccc2)C[C@]2(C1)NC(=O)NC2=O)c1cc(C(F)(F)F)cc(C(F)(F)F)c1 [Example 11a] ?
**A:** 130 to 1780 pM
